# method-summary: inhibitors of TNFa-induced NFkB p65 translocation, primary screen, imaging, HUVEC, MLSMR starter and 10KST1 sets (AID 438);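 further: compound added about 3h40 before a 20 min TNFalpha stimulation; signal is the nuclear over cytoplasmic p65 intensity ratio per well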
# condition-details: HUVEC TNFa-induced p65 nuclear translocation; at 2 µM, stronger effect = higher value unless noted
observed-property: inhibition (%)
Numbers only, in %.

Could you tell me inhibition for each of these molecules? They are listed below.
1. C[C@@]1(CO)[C@H](O)CC[C@@]2(C)[C@H]1CC[C@H]1C[C@@H]3C[C@@]12CC[C@]3(O)CO
2. Cc1nc2ccccc2c(=O)n1-c1ccc(F)cc1
3. Cn1c(=O)cc(OCC(=O)N2CCN(C3CCCCC3)CC2)c2ccccc21
4. COc1ccccc1/C=C1/C(=N/O)C2CCN1CC2
5. CN(C)[C@@H]1C(=O)C(C(N)=O)=C(O)[C@@]2(O)C(=O)C3=C(O)c4c(O)ccc(Cl)c4[C@@](C)(O)C3C[C@@H]12 (stereo partly specified)

A:
1: -4.1; 2: -5; 3: -5.5; 4: -15; 5: -1.6

###

# tested-target: Alpha-2C adrenergic receptor (Homo sapiens)
# method-summary: compounds altering alpha2C-coupled GIRK flux – cell-based, HEK293 alpha2C/GIRK1/2, thallium flux, primary screen (AID 624);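 further: slope of fluorescence ratio to pre-addition baseline per second over 15 to 24 s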
# condition-details: thallium flux BTC fluorescence, at 10 µM, actives lie on both sides
Task for the reader: assign each of the following compounds its reported slope.
Give bare numbers.

CC1CCC(C(C)C)C(OP(N)(=O)c2ccccc2)C1 (stereo not drawn) : 0.00486
O=c1[nH]c(=O)n(CCc2ccccc2)c(O)c1C=NCCCn1ccnc1 : 0.00497
C=CCC1(CN2CCCCCC2=O)C(=O)NC(=O)NC1=O : 0.00505
C[N+]1(C)CCc2cc3c(cc2[C@H]1[C@@H]1OC(=O)c2c1ccc1c2OCO1)OCO3 : 0.00504
CCOc1cc2[nH]c(=S)n(CCCC(=O)N3CCC4(CC3)OCCO4)c(=O)c2cc1OCC : 0.00495
CNCCc1c[nH]c2ccccc12 : 0.00539
O=c1[nH]c(=O)n(-c2cccc(Cl)c2)c(O)c1C=NCCN1CCCCC1 : 0.00582

Now look at this one.
Q: So what does the record say about slope for CCCCSP1(=S)NCCCN1 ?
A: 0.00525

###

# method-summary: reduction of polyQ htt aggregates in cells – imaging, exon1htt(103Q)mCFP cells, high-content imaging, primary screen (AID 483);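 further: compound exposure lasted 3 days before fixation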
# condition-details: exon1htt(103Q)mCFP cell line, aggregate imaging, at 2 µM; stronger effect = higher value
Provide the reported inhibition of aggregation of each item.
Answers are plain numbers, in %.

CCCCn1c(O)c(C(CC)=Nc2cccc(C(=O)O)c2)c(=O)[nH]c1=O : 9.5

Please go through the list and note inhibition of aggregation for each compound.
1. C=C1CC[C@@]2(O)[C@H]3Cc4ccc(O)c5c4[C@@]2(CCN3CC2CC2)[C@H]1O5
2. CC(C)=CCSc1nnc([C@@H](N)Cc2c[nH]c3ccccc23)o1
3. O=C(c1ccc2nc3ccc(Cl)cc3c(=O)n2c1)N1CCC2(CC1)OCCO2
4. O=c1[nH]c(=O)n(Cc2ccc(F)cc2)c(O)c1C=NCCCN1CCOCC1
5. CCCCN1C(=O)NC(=O)C2(Cc3c(nc4c(C)cccn4c3=O)N3CCc4ccccc4C32)C1=O (stereo not given)
6. Cc1ccc(C)c(NC(=O)CSc2nnc([C@@H](N)Cc3c[nH]c4ccccc34)o2)c1
7. CC(=NCCCN1CCOCC1)c1c(O)n(-c2ccccc2C)c(=O)[nH]c1=O
8. c1ccc2c3c([nH]c2c1)CNCC3

A:
-9.9
14.2
8
4.6
-11.7
-6.6
-27.1
3.2

List the reported inhibition of aggregation of each compound below.
1. O=C(O)Cn1cc(C(=O)c2ccccc2)c2ccccc21
2. O=C(CN1CCN(Cc2cccc(Cl)c2)C1=O)N1CCC2(CC1)OCCO2

A:
1: 16.7; 2: 19.2

Required: inhibition of aggregation, one value per compound below.
1. C=CCn1c(O)c(C=NCCN(C)C)c(=O)[nH]c1=O
2. CCCNS(=O)(=O)c1ccc(OCC(=O)N2CCN(Cc3ccccc3)CC2)cc1
3. Cc1ccc2c(c1)[C@@H]1CN(C)CC[C@@H]1N2C(=O)Nc1cccc(C(F)(F)F)c1
4. O=C(c1ccc2nc(-c3ccco3)c(-c3ccco3)nc2c1)N1CCC2(CC1)OCCO2

A:
1: -0.9; 2: -5; 3: -11.2; 4: -4.6
